Reference for the values: patent US10244779B2

CHEMICAL_STRUCTURE: Cc1nc2cccc(OCC(C)(C)C(=O)NC3CC3)c2c(N)c1C(=O)O
melting point: 227 to 229 °C

CHEMICAL_STRUCTURE: CCCNC(=O)C(C)(C)COc1cccc2c1C(N)=NS(=O)(=O)N2
melting point: 225 to 226 °C

CHEMICAL_STRUCTURE: Cc1nc2cccc(OCC(C)(C)NC(=O)CC(C)C)c2c(N)c1C(=O)O
melting point: 195 to 198 °C

CHEMICAL_STRUCTURE: Cc1nc2cccc(OCC(C)(C)NC(=O)C3CCC3)c2c(N)c1C(=O)O
melting point: 186 to 190 °C

CHEMICAL_STRUCTURE: CCC(=O)NC(C)(C)COc1cccc2nc(C)c(C(=O)O)c(N)c12
melting point: 189 to 193 °C

====

Overview of reported melting point across a group of compounds:

COMPOUND: Cc1nc2cccc(O[C@H]3CC[C@H](NC(=O)C(C)C)CC3)c2c(N)c1C(=O)O [Example 137]
melting point: 183 to 185 °C
//
COMPOUND: Cc1nc2cccc(OCC(C)(C)C(=O)NCC3CCC3)c2c(N)c1C(=O)O [Example 151]
melting point: 170 to 172 °C
//
COMPOUND: Cc1nc2cccc(OCC(C)(C)NC(=O)C(C)C)c2c(N)c1C(=O)O [Example 139]
melting point: 184 to 186 °C
//
COMPOUND: Cc1nc2cccc(OC3CCN(C(=O)C(C)C)CC3)c2c(N)c1C(=O)O [Example 143]
melting point: 184 to 186 °C
//
COMPOUND: CCC(CC)NC(=O)C(C)(C)COc1cccc2nc(C)c(C(=O)O)c(N)c12 [Example 148]
melting point: 172 to 174 °C
//
COMPOUND: CCCCNC(=O)C(C)(C)COc1cccc2nc(C)c(C(=O)O)c(N)c12 [Example 147]
melting point: 195 to 199 °C
//
COMPOUND: Cc1nc2cccc(OCC(C)(C)NC(=O)c3ccncc3)c2c(N)c1C(=O)O [Example 24]
melting point: 195 to 198 °C
//
COMPOUND: Cc1nc2cccc(OCC(C)(C)NC(=O)c3cccc(O)c3)c2c(N)c1C(=O)O [Example 25]
melting point: 195 to 198 °C
//
COMPOUND: Cc1nc2cccc(OCC(C)C)c2c(N)c1C(=O)O [Example 41]
melting point: 203.7 °C

====

Reported melting point is given for each of the following molecules.

MOLECULE: Cc1nc2cccc(OC3CCCCC3)c2c(N)c1C(=O)O [Example 36]
melting point: 220 to 221.5 °C

MOLECULE: CC(C)(COc1cccc2c1C(N)=NS(=O)(=O)N2)NC(=O)c1ccccc1 [Example 198]
melting point: 235 to 236 °C

MOLECULE: Nc1nc(=O)[nH]c2sc3c(c12)CCOC3 [Example 159]
melting point: > 260 °C

MOLECULE: CCC(CC)COc1cccc2nc(C)c(C(=O)O)c(N)c12 [Example 22]
melting point: 145 to 151 °C

MOLECULE: CCCOc1cccc2c1C(N)=NS(=O)(=O)N2 [Example 158]
melting point: 229 to 230 °C

MOLECULE: CNC(=O)[C@H]1CC[C@H](Oc2cccc3nc(C)c(C(=O)O)c(N)c23)CC1 [Example 154]
melting point: 195 to 198 °C

MOLECULE: Cc1nc2cccc(OCC(C)(C)C(=O)NCC(C)C)c2c(N)c1C(=O)O [Example 150]
melting point: 176 to 179 °C

MOLECULE: Cc1nc2cccc(OCC(C)(C)NC(=O)CN3CCOCC3)c2c(N)c1C(=O)O [Example 149]
melting point: 173 to 175 °C

MOLECULE: Cc1nc2cccc(OCC(C)(C)C(=O)NCC3CC3)c2c(N)c1C(=O)O [Example 146]
melting point: 177 to 179 °C
